Sourced from the supplement of paper PMC4022240

study_system: anti-H3K9me3 antibody ab8898
assay_summary: peptide microarray binding signal (635 nm), min-max normalized on array (fraction of array maximum); higher = stronger binding
reported_conditions: peptide region: Unmod H3 variant; binder concentration: 1:2,000 dilution
Each entry belongs to exactly one class, chosen by where its peptide microarray binding signal falls: LOW: < 0.0005; MEDIUM: ≥ 0.0005 and < 0.002; HIGH: ≥ 0.002

[[record]]
binder = "VREIAQDFKTDLR [Unmod H3 variant V R E I A Q D F K T D L R]"
category = "HIGH"


Please look at the following binder next.
State the band of RVTIMPKDIQLAR [Unmod H3 variant R V T I M P K D I Q L A R]
HIGH
